measurement.kind: melting point

N#Cc1cc(=O)n(-c2c(Cl)cc(C(F)(F)F)cc2Cl)[nH]1: 198 to 201 °C
CC1=C(/C=C/C(C)=C/C=C/C(C)=C\C(=O)O)C(C)(C)C(O)C=C1 (stereo not given): 108 to 110 °C
CNC(=O)N(N=Cc1ccccc1)c1nnc(C(C)(C)C)s1: 115 to 116 °C
O=C(O)CCCCNC(=O)Cc1ccc2c(c1)CC(NS(=O)(=O)c1ccc(Cl)cc1)C2 (stereo not given): 156 to 158 °C
COc1ccc(-c2cc(C)sc2-c2ccc(OC)cc2)cc1: 93 to 97 °C

QUERY: Give the value of melting point reported for the following: CCCOc1ccccc1-c1nc2c(CCCc3ccccc3)cccc2c(=O)[nH]1
RESULT: 89 °C

QUERY: Give the value of melting point reported for the following: N#CCNS(=O)(=O)c1ccc([N+](=O)[O-])cc1
RESULT: 115 to 120 °C

QUERY: Give the value of melting point reported for the following: CCOC(=O)NC[C@H]1CN(c2ccc3c(c2)CCCc2cn[nH]c2-3)C(=O)O1
RESULT: 122 to 126 °C

QUERY: Give the value of melting point reported for the following: CCN(CC)C(=O)c1ccc(Cl)c(C2(C)C(=O)N(Cc3ccc(OC)cc3OC)c3ccc(Cl)cc32)c1 (stereo not given)
RESULT: 86 °C

QUERY: Give the value of melting point reported for the following: Cc1cc(-n2cncn2)c2cc(Cl)cc(Cl)c2n1
RESULT: 220 to 222 °C
